- measured.target: Protein S100-A4 (Homo sapiens)
- measurement.protocol: human S100A4 peptide interaction inhibition curves – biochemical, fluorescence polarization, cherry-picked hits, dose response (AID 687001);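 note: 0% = DMSO neutral control wells and -100% = TFP positive control wells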
- applied.conditions: FP, S100A4/TAMRA-myosin IIA peptide binding; series mostly up to 11 µM
Potency and affinity values are given separately. Calls of active or inactive are those of the source.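 Rule for the calls: active = signal-lowering compounds whose fitted half-maximal concentration is at or below twice the top tested dose in every run; inconclusive = runs disagree, flat 30 to 70% inhibition, or poor curve fit; inactive = the rest.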
experimental.endpoint: activity change, negative = inhibition

Observed activity change, negative = inhibition on Protein S100-A4 (Homo sapiens), entry "O=C(Nc1ccccc1F)N1C[C@@H]2[C@H](c3ccccc31)[C@@H](CO)N2C(=O)C1CCCC1" , equals inactive

The observed activity change, negative = inhibition for "COC(=O)[C@@H]1[C@@H](CO)[C@@H]2Cn3c(cccc3=O)[C@@H]2N1CC1CCOCC1" when tested with Protein S100-A4 (Homo sapiens) stands at inactive

Measured activity change, negative = inhibition for this entry "CCOc1ccc(NC(=O)CN(C)C(=O)c2cccc3ccccc23)cc1OCC" on Protein S100-A4 (Homo sapiens): inactive

activity change, negative = inhibition for Protein S100-A4 (Homo sapiens) with input "CN1CCN(S(=O)(=O)c2cccc(C(=O)NC3CCCC3)c2)CC1" equals inactive

Form field, activity change, negative = inhibition with Protein S100-A4 (Homo sapiens), item "COc1cccc(NC(=O)N[C@@H]2C=C[C@@H](CC(=O)N3CCN(C)CC3)O[C@@H]2CO)c1" : inactive

For "COc1cccc(-c2ccc([C@@H]3[C@H](CO)N4CCCCN(C(=O)c5ccc(F)cc5)C[C@@H]34)cc2)c1" on Protein S100-A4 (Homo sapiens), measured activity change, negative = inhibition was inactive

Simply: "C[C@@H]1CN([C@H](C)CO)C(=O)c2cccc(NC(=O)CCCCCC(=O)Nc3ccccc3N)c2O[C@H]1CN(C)S(=O)(=O)c1cccs1" , Protein S100-A4 (Homo sapiens), activity change, negative = inhibition = inactive

Simply: "O=C(Nc1ccccc1)N1CCCCN2[C@H](CO)[C@H](c3ccc(C#Cc4ccccn4)cc3)[C@H]2C1" , Protein S100-A4 (Homo sapiens), activity change, negative = inhibition = inactive

Measured activity change, negative = inhibition for this entry CN(C)c1ccc(/C=C(\C#N)C(=O)OCC(=O)N(C)C2CCS(=O)(=O)C2)cc1 (stereo not drawn) on Protein S100-A4 (Homo sapiens): 128% [at 2.6 µM] (inactive)

So the reported activity change, negative = inhibition for COc1ccccc1N1CC(C(=O)Nc2ccc(C)c(S(=O)(=O)N3CCOCC3)c2)CC1=O (stereo not drawn) , on Protein S100-A4 (Homo sapiens), turned out to be inactive

Others:
Note to self: activity change, negative = inhibition of "CCn1nc(C(=O)Nc2cc(Cl)ccc2-n2cncn2)c2ccccc2c1=O" with Protein S100-A4 (Homo sapiens) was inactive

Measured on Protein S100-A4 (Homo sapiens), "C[C@@H]1CN([C@H](C)CO)C(=O)CCCn2cc(nn2)CO[C@H]1CN(C)S(=O)(=O)c1ccc(Oc2ccccc2)nc1" has a documented activity change, negative = inhibition of inactive

activity change, negative = inhibition on Protein S100-A4 (Homo sapiens) for "Cc1cc(C)cc(OCC(=O)OCC(=O)N2CCc3ccccc32)c1" is inactive

Param item: "N#C[C@@H]1[C@H](c2ccccc2C2=CCCCC2)[C@H](CO)N1C(=O)NC1CCCC1" ; param system: Protein S100-A4 (Homo sapiens); output activity change, negative = inhibition: inactive

"CCCNC(=O)N1CC(=O)N2[C@H](CO)[C@@H](c3ccc(-c4ccc(F)cc4)cc3)[C@H]2C1" on Protein S100-A4 (Homo sapiens) gives activity change, negative = inhibition = inactive

With Protein S100-A4 (Homo sapiens) as the test system, "Cc1ccc(/C=C2/SC(=O)N(CC(=O)N3CCOCC3)C2=O)s1" showed activity change, negative = inhibition of 7.53% [at 2.6 µM] (inactive)

Short answer on Protein S100-A4 (Homo sapiens) for "Cc1[nH][nH]c(=O)c1C(c1cc(Br)ccc1O)c1c(C)[nH][nH]c1=O" , activity change, negative = inhibition: inactive

The recorded activity change, negative = inhibition with Protein S100-A4 (Homo sapiens) for "CCCCN(C(=O)c1c(-c2ccccc2)noc1C)c1c(N)n(CCC)c(=O)[nH]c1=O" was inactive

###

- measured.target: Protein S100-A4 (Homo sapiens)
- measurement.protocol: human S100A4 peptide interaction inhibition curves – biochemical, fluorescence polarization, cherry-picked hits, dose response (AID 687001);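 note: 0% = DMSO neutral control wells and -100% = TFP positive control wells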
- applied.conditions: FP, S100A4/TAMRA-myosin IIA peptide binding; series mostly up to 11 µM
Measured potencies and affinities stand elsewhere. The source made the active and inactive calls.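 Rule for the calls: active = signal-lowering compounds whose fitted half-maximal concentration is at or below twice the top tested dose in every run; inconclusive = runs disagree, flat 30 to 70% inhibition, or poor curve fit; inactive = the rest.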
experimental.endpoint: activity change, negative = inhibition

Known activity change, negative = inhibition results, listed for orientation:
Lookup result for Cc1ccccc1NC(=O)C1CCN(S(=O)(=O)c2ccc3c(c2)NC(=O)C(C)S3)CC1 (stereo not drawn) ; measured activity change, negative = inhibition: inactive

// recorded activity change, negative = inhibition for "O=C(Cc1ccc(Br)cc1)N/N=C/c1cccnc1" : inactive

Lab note: measured activity change, negative = inhibition of "CC(=O)Nc1ccc(Nc2nnc(-c3ccc(C)c(S(N)(=O)=O)c3)c3ccccc23)cc1" was inactive

Entry "Cn1cc(SCC(=O)NC2CCCC2)c2ccccc21" — recorded activity change, negative = inhibition = inactive

---
Entry COc1ccc2c(c1OC)C(=O)N1N=C(c3ccc(Cl)cc3)CC21 (stereo not drawn) , activity change, negative = inhibition reported as inactive

activity change, negative = inhibition reading for "O=C(Nc1ccccc1F)N[C@H]1CC[C@H](CCNC(=O)C2CCCCC2)O[C@H]1CO" : inactive

Field activity change, negative = inhibition (entry "Cc1cccc(Nc2c3c(nc4ccccc24)CCC3)c1" ) reads inactive

Reported activity change, negative = inhibition for "CCN(CC)C(=O)Cn1ccc(NC(C)=O)nc1=O" was inactive
